Data origin, for the record: PubChem BioAssay (NCI)

Test system: ACHN renal
test.protocol: NCI tumour cell line growth inhibition, 48 h
Each entry below carries its recorded TGI.

compound	TGI
O=C(/C=C/C12c3ccccc3C(c3ccccc31)C1C(=O)NC(=O)C12)c1ccccc1 (stereo not given)	3.59 µM
O=C(Nc1nn(C(=O)c2cccnc2)c(=O)s1)c1ccc(Cl)cc1	> 100 µM
COC(=O)C1CCc2nnc(-c3ccccc3)n21 (stereo not given)	> 100 µM
C=CN(C=C)C(=O)Cn1cc(-c2ccccc2)nn1	> 100 µM
COc1cc2c(c(OC)c1)[C@H](C)N(Cc1ccccc1)C(C)C2 (stereo not given in full)	> 100 µM
CCC[CH2][Sn]1([CH2]CCC)[S]CC[N]1S(=O)(=O)c1ccc(C)cc1	3.11 µM
COc1c(N2CCN(CN3C(=O)C(=Nc4ccc(S(=O)(=O)Nc5ncccn5)cc4)c4cc(Cl)ccc43)C(C)C2)c(F)cc2c(=O)c(C(=O)O)cn(C3CC3)c12 (stereo not given)	> 50 µM
O=C(c1ccco1)N(C(=O)N1CCC(c2ccccc2)CC1)c1ccccc1	> 100 µM
COc1ccc(-c2cc3cc(Cl)cc(Cl)c3oc2=O)cc1OC	> 100 µM
CC1SC(c2ccc(Cl)cc2Cl)N(NC(=O)C(O)c2ccccc2)C1=O (stereo not given)	> 100 µM
